- Test system: PPARg:RXRa 270nM:90nM, anti-RXR (NR concentration 270 nM, RXRa partner concentration 90 nM)
- procedure-summary: PBM binding z-score (relative to random genomic background probes); higher = stronger binding; sequences stand for … in GC…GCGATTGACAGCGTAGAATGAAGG
Would you mind classing the entries by PBM binding z-score? Ranges: low bin (below 0.9), mid bin (0.9 to below 5), high bin (5 or more)

* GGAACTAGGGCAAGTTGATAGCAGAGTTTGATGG | mid bin
* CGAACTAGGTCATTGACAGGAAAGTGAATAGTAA | high bin
* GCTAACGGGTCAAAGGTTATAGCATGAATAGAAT | high bin
* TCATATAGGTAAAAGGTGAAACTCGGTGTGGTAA | high bin
* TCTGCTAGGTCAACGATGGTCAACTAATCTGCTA | mid bin
* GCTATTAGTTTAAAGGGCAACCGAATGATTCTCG | mid bin
* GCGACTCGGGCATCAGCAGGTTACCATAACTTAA | low bin
* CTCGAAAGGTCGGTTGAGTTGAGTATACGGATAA | low bin
* ACTTACTGGTCAACGAGGTTATAGCACGCGTATA | mid bin
* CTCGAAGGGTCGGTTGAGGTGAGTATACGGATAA | low bin
* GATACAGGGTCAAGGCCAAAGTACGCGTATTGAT | high bin
* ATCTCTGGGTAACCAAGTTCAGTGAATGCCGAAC | low bin
* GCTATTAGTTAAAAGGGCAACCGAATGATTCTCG | mid bin
* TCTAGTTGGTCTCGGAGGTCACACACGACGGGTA | mid bin
* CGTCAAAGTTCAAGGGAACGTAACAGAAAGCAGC | mid bin
* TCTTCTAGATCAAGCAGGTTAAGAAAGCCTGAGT | mid bin
* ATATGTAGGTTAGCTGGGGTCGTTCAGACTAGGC | mid bin
* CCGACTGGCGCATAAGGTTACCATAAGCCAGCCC | low bin
* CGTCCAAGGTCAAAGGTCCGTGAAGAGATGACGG | high bin
* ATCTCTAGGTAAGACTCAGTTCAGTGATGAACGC | low bin
* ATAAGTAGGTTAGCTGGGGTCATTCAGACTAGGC | high bin
* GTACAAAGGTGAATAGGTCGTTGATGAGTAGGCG | mid bin
* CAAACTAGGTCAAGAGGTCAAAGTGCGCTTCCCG | high bin
* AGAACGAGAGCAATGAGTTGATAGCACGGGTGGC | low bin

###

- System: THRa:RXRa (NR concentration 90 nM, RXRa partner concentration 90 nM)
- procedure-summary: PBM binding z-score (relative to random genomic background probes); higher = stronger binding; sequences stand for … in GC…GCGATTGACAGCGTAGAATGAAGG
Please enter fulfilled where PBM binding z-score is greater than or equal to 4, and not fulfilled where it is lower.

- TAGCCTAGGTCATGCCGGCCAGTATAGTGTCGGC: not fulfilled
- TGAATGAGGTTATAAGACCAGGGAACGTTGCAAA: not fulfilled
- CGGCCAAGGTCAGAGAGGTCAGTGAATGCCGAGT: fulfilled
- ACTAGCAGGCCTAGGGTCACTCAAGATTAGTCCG: not fulfilled

###

Listed sequences paired with reported PBM binding z-score
- Tested on: PPARg homodimer (NR concentration 180 nM)
- procedure-summary: PBM binding z-score (relative to random genomic background probes); higher = stronger binding; sequences stand for … in GC…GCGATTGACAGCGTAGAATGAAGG
observed-property: PBM binding z-score

• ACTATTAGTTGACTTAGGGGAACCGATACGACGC = 0.783
• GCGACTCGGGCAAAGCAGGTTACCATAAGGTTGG = -0.783
• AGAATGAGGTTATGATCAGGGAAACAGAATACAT = 0.605
• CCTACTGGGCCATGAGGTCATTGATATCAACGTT = 2.41
• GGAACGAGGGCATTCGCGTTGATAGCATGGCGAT = -0.126
• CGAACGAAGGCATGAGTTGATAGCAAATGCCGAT = -0.786
